The variants listed here are annotated with their percent of parent.
B1: MeV phosphoprotein (P), wild type [measles virus (strain IC-B)] / MeV L_(1708), C-terminally truncated large polymerase protein lacking the methyltransferase domain [measles virus (strain IC-B)] (parent complex)
chain 1: MAEEQARHVKNGLECIRALKAEPIGSLAVEEAMAAWSEISDNPGQDRATCKEEEAGSSGLSKPCLSAIGSTEGGAPRIRGQGSGESDDDAETLGIPSRNLQASSTGLQCYHVYDHSGEAVKGIQDADSIMVQSGLDGDSTLSGGDDESENSDVDIGEPDTEGYAITDRGSAPISMGFRASDVETAEGGEIHELLKLQSRGNNFPKLGKTLNVPPPPNPSRASTSETPIKKGTDARLASFGTEIASLLTGGATQCARKSPSEPSGPGAPAGNVPECVSNAALIQEWTPESGTTISPRSQNNEEGGDYYDDELFSDVQDIKTALAKIHEDNQKIISKLESLLLLKGEVESIKKQINRQNISISTLEGHLSSIMIAIPGLGKDPNDPTADVELNPDLKPIIGRDSGRALAEVLKKPVASRQLQGMTNGRTSSRGQLLKEFQLKPIGKKVSSAVGFVPDTGPASRSVIRSIIKSSRLEEDRKRYLMTLLDDIKGANDLAKFHQMLMKIIMK
chain 2: MDSLSVNQILYPEVHLDSPIVTNKIVAILEYARVPHAYSLEDPTLCQNIKHRLKNGFSNQMIINNVEVGNVIKSKLRSYPAHSHIPYPNCNQDLFNIEDKESTRKIRELLKKGNSLYSKVSDKVFQCLRDTNSRLGLGSELREDIKEKIINLGVYMHSSQWFEPFLFWFTVKTEMRSVIKSQTHTCHRRRHTPVFFTGSSVELLISRDLVAIISKESQHVYYLTFELVLMYCDVIEGRLMTETAMTIDARYAELLGRVRYMWKLIDGFFPALGNPTYQIVAMLEPLSLAYLQLRDITVELRGAFLNHCFTEIHDVLDQNGFSDEGTYHELIEALDYIFITDDIHLTGEIFSFFRSFGHPRLEAVTAAENVRKYMNQPKVIVYETLMKGHAIFCGIIINGYRDRHGGSWPPLTLPLHAADTIRNAQASGEGLTHEQCVDNWKSFAGVRFGCFMPLSLDSDLTMYLKDKALAALQREWDSVYPKEFLRYDPPKGTGSRRLVDVFLNDSSFDPYDMIMYVVSGAYLHDPEFNLSYSLKEKEIKETGRLFAKMTYKMRACQVIAENLISNGIGKYFKDNGMAKDEHDLTKALHTLAVSGVPKDLKESHRGGPVLKTYSRSPVHTSTRNVKAEKGFVGFPHVIRQNQDTDHPENIETYETVSAFITTDLKKYCLNWRYETISLFAQRLNEIYGLPSFFQWLHKRLETSVLYVSDPHCPPDLDAHVPLCKVPNDQIFIKYPMGGIEGYCQKLWTISTIPYLYLAAYESGVRIASLVQGDNQTIAVTKRVPSTWPYNLKKREAARVTRDYFVILRQRLHDIGHHLKANETIVSSHFFVYSKGIYYDGLLVSQSLKSIARCVFWSETIVDETRAACSNIATTMAKSIERGYDRYLAYSLNVLKVIQQILISLGFTINSTMTRDVVIPLLTNNDLLIRMALLPAPIGGMNYLNMSRLFVRNIGDPVTSSIADLKRMILASLMPEETLHQVMTQQPGDSSFLDWASDPYSANLVCVQSITRLLKNITARFVLIHSPNPMLKGLFHDDSKEEDERLAAFLMDRHIIVPRAAHEILDHSVTGARESIAGMLDTTKGLIRASMRKGGLTSRVITRLSNYDYEQFRAGMVLLTGRKRNVLIDKESCSVQLARALRSHMWARLARGRPIYGLEVPDVLESMRGHLIRRHETCVICECGSVNYGWFFVPSGCQLDDIDKETSSLRVPYIGSTTDERTDMKLAFVRAPSRSLRSAVRIATVYSWAYGDDDSSWNEAWLLARQRANVSLEELRVITPISTSTNLAHRLRDRSTQVKYSGTSLVRVARYTTISNDNLSFVISDKKVDTNFIYQQGMLLGLGVLETLFRLEKDTGSSNTVLHLHVETDCCVIPMIDHPRIPSSRKLELRAELCTNPLIYDNAPLIDRDATRLYTQSHRRHLVEFVTWSTPQLYHILAKSTALSMIDLVTKFEKDHMNEISALIGDDDINSFITEFLLIEPRLFTIYLGQCAAINWAFDVHYHRPSGKYQMGELLSSFLSRMSKGVFKVLVNALSHPKIYKKFWHCGIIEPIHGPSLDAQNLHTTVCNMVYTCYMTYLDLLLNEELEEFTFLLCESDEDVVPDRFDNIQAKHLCVLADLYCQPGTCPPIRGLRPVEKCAVLTDHIKAEARLSPAGSSWNINPIIVDHYSCSLTYLRRGSIKQIRLRVDPGFIFDALAEVNVSQPKVGSN

- Variants of: B1
- assay_summary: co-immunoprecipitation (IP anti-HA of P, immunoblot of L anti-FLAG, densitometry); lysates of transiently transfected cells, lysed 24 hours after transfection; IP at 4°C; parent: 100; read off a plot

// worked examples, percent of parent included
chain 1 D401A, chain 1 S402A, chain 1 G403A, chain 1 R404A ... ~19 % of wild type P
chain 1 K440A, chain 1 P441A, chain 1 I442A, chain 1 G443A ... ~75 % of wild type P
chain 1 G431A, chain 1 Q432A, chain 1 L433A, chain 1 L434A ... ~85 % of wild type P
chain 1 R404A, chain 1 L406A ... ~14 % of wild type P
chain 1 L377A, chain 1 G378A, chain 1 K379A, chain 1 D380A ... ~78 % of wild type P
chain 1 D383A, chain 1 P384A, chain 1 T385A ... ~55 % of wild type P
chain 1 E408A, chain 1 V409A, chain 1 L410A ... ~30 % of wild type P
chain 1 P396A, chain 1 I397A, chain 1 I398A, chain 1 G399A ... ~22 % of wild type P

In: Assign percent of parent to the following record: chain 1 S447A, chain 1 S448A, chain 1 V450A
Out: ~92 % of wild type P
